- assayed_system: C-C chemokine receptor type 4 (Homo sapiens, UniProt P51679)
- Sequence (P51679 whole entry): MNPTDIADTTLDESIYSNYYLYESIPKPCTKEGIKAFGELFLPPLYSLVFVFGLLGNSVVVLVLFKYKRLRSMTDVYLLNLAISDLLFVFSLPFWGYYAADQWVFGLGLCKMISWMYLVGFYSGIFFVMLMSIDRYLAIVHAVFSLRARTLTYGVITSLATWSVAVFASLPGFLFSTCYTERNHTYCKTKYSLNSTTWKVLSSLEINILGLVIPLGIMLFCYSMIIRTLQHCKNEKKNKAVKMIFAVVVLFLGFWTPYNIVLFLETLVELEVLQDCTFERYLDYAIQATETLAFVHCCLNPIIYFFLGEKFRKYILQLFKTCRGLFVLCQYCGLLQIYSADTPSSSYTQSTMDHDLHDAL
- experiment_summary: Inhibition of [125I]MDC binding to recombinant human C-C chemokine receptor type 4 (CCR4) expressed in murine pre-B cells
- Assay type: cell-based
observation_type: IC50
Enter the number, and then the unit.

Look over these answered cases.
structure_smiles_string | assayed_system | observation_type | reported_result
O=C(CN1C(=O)[C@@H](CC(=O)N[C@@H]2CCc3ccccc32)S[C@@H]1c1ccc(Cl)cc1Cl)NCCCN1CCOCC1 | C-C chemokine receptor type 4 (Homo sapiens, UniProt P51679) | IC50 | 2.9 µM
O=C(C[C@H]1S[C@H](c2c(Cl)cccc2Cl)N(CC(=O)NCCCN2CCOCC2)C1=O)NCc1cccc2ccccc12 | C-C chemokine receptor type 4 (Homo sapiens, UniProt P51679) | IC50 | 8 µM
O=C(C[C@H]1S[C@H](c2ccco2)N(CC(=O)NCCCN2CCOCC2)C1=O)NCc1cccc2ccccc12 | C-C chemokine receptor type 4 (Homo sapiens, UniProt P51679) | IC50 | 29 µM
O=C(C[C@H]1S[C@H](c2ccc(Cl)cc2Cl)N(CC(=O)NCCCN2CCOCC2)C1=O)NCc1ccc(-c2ccccc2)cc1 | C-C chemokine receptor type 4 (Homo sapiens, UniProt P51679) | IC50 | 2.5 µM
CN(C)CC(=O)NCCN1C(=O)[C@@H](CC(=O)NCc2cccc3ccccc23)S[C@@H]1c1ccc(Cl)cc1Cl | C-C chemokine receptor type 4 (Homo sapiens, UniProt P51679) | IC50 | 11 µM

Now examine the next entry.
Query string: In one line, give reported IC50 of the entry O=C(C[C@H]1S[C@H](c2ccc(Cl)cc2Cl)N(CC(=O)NCCN2CCOCC2)C1=O)NCc1cccc2ccccc12 .
Result string: 3.5 µM

---

- assayed_system: UniProt P51679
- experiment_summary: Inhibition of [125I]MDC binding to recombinant human C-C chemokine receptor type 4 (CCR4) expressed in murine pre-B cells
- Assay type: cell-based
observation_type: pIC50
Reminder that pIC50 means the negative base-10 logarithm of the concentration expressed in mol/L.

Worked cases, answers included:
compound | assayed_system | reported_result
O=C(C[C@H]1S[C@H](c2ccc(Cl)cc2Cl)N(CC(=O)NCCCN2CCOCC2)C1=O)NCCc1ccc(Cl)c(Cl)c1 | UniProt P51679 | 4.89
O=C(CN1C(=O)[C@@H](CC(=O)NC2CCCc3ccccc32)S[C@@H]1c1ccc(Cl)cc1Cl)NCCCN1CCOCC1 (stereo not given in full) | UniProt P51679 | 5.17
C[C@H](NC(=O)C[C@H]1S[C@H](c2ccc(Cl)cc2Cl)N(CC(=O)NCCCN2CCOCC2)C1=O)c1ccccc1 | UniProt P51679 | 4.92

Lab note: next compound to report on.
Query string: Give the value of pIC50 reported for the following: O=C(C[C@H]1S[C@H](c2ccc(Cl)cc2Cl)N(CCCCN2CCOCC2)C1=O)NCc1cccc2ccccc12
Result string: 4.74

---

- assayed_system: C-C chemokine receptor type 4 (Homo sapiens)
- experiment_summary: Inhibition of [125I]MDC binding to recombinant human C-C chemokine receptor type 4 (CCR4) expressed in murine pre-B cells
- Assay type: cell-based
observation_type: IC50
Provide a numeric answer, followed by its unit.

Guide cases for IC50, answers given:
structure_smiles_string | assayed_system | IC50
CN1CCC(NC(=O)CN2C(=O)[C@@H](CC(=O)NCc3cccc4ccccc34)S[C@@H]2c2ccc(Cl)cc2Cl)CC1 | C-C chemokine receptor type 4 (Homo sapiens) | 8 µM
O=C(C[C@H]1S[C@H](c2cc(Cl)cc(Cl)c2)N(CC(=O)NCCCN2CCOCC2)C1=O)NCc1cccc2ccccc12 | C-C chemokine receptor type 4 (Homo sapiens) | 9 µM

Query string: State its IC50 for this compound: C[C@H](NC(=O)C[C@H]1S[C@H](c2ccc(Cl)cc2Cl)N(CC(=O)NCCCN2CCOCC2)C1=O)c1cccc2ccccc12
Result string: 8 µM

---

Listing of entries alongside the reported IC50.
- assayed_system: C-C chemokine receptor type 4 (Homo sapiens)
- experiment_summary: Inhibition of [125I]MDC binding to recombinant human C-C chemokine receptor type 4 (CCR4) expressed in murine pre-B cells
- Assay type: cell-based
Entry rule: numbers only, all in µM.

Worked cases, answers included:
structure_smiles_string | IC50 / µM
O=C(C[C@H]1S[C@H](c2ccc(Cl)cc2Cl)N(CC(=O)NCCCN2CCOCC2)C1=O)NCc1cccc(F)c1 | 1.5
O=C(C[C@H]1S[C@H](c2ccc(Cl)cc2Cl)N(CC(=O)NCCCN2CCOCC2)C1=O)NCc1ccccc1Cl | 10

Now for another entry.
Query string: Specify the recorded IC50 for O=C(C[C@H]1S[C@H](c2ccc(Cl)cc2Cl)N(CC(=O)NCCCN2CCOCC2)C1=O)NCc1ccccc1-c1ccccc1 , system: C-C chemokine receptor type 4 (Homo sapiens).
Result string: 6
